system: E31 (patient-derived glioblastoma stem cells of proneural subtype); assay: phenotypic distance (Euclidean, principal components) from DMSO controls (arbitrary units); higher = stronger morphological change; conditions: 3000 nM; exposure time: 72 h;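 further: cell Painting imaging in 384-well plates, CellProfiler features reduced to at least 20 principal components, Euclidean distance versus same-plate DMSO vehicle wells (0.1% v/v), median over six images per well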
Where a name gives a salt, the structure may show the parent alone.
readoutKind: phenotypic distance
Give your answer as a number; write no unit.

As a guide, the following entries are already answered.
[
  {
    "compound": "COc1cc(NS(C)(=O)=O)ccc1Nc1c2ccccc2nc2ccccc12",
    "phenotypic distance": 6.79
  },
  {
    "compound": "Nc1nc(=O)c2nc(CNc3ccc(C(=O)N[C@@H](CCC(=O)O)C(=O)O)cc3)cnc2[nH]1",
    "phenotypic distance": 0.335
  },
  {
    "compound": "Clc1ccc(CSC(Cn2ccnc2)c2ccc(Cl)cc2Cl)cc1 (centres undefined) [Sulconazole nitrate]",
    "phenotypic distance": 1.4
  },
  {
    "compound": "NCc1ccccc1CC(=O)N[C@@H]1C(=O)N2C(C(=O)O)=C(CSc3nnnn3CC(=O)O)CS[C@H]12 [Ceforanide]",
    "phenotypic distance": 0.779
  },
  {
    "compound": "OC[C@H]1NC[C@H](O)[C@@H](O)[C@@H]1O",
    "phenotypic distance": 0.614
  }
]

## Task Give the reported value of phenotypic distance for this record: CC1(C)S[C@@H]2[C@H](NC(=O)Cc3ccccc3)C(=O)N2[C@H]1C(=O)O [Benzylpenicillin sodium]
## Result 1.21

## Task Give the reported value of phenotypic distance for this record: CC(C)NCC(O)c1ccc(O)c(O)c1 (centres undefined) [Isoproterenol hydrochloride]
## Result 0.88

## Task Give the reported value of phenotypic distance for this record: C[C@H]1O[C@@H](O[C@H]2[C@@H](O)C[C@H](O[C@H]3[C@@H](O)C[C@H](O[C@H]4CC[C@@]5(C)[C@H](CC[C@@H]6[C@@H]5C[C@@H](O)[C@]5(C)[C@@H](C7=CC(=O)OC7)CC[C@]65O)C4)O[C@@H]3C)O[C@@H]2C)C[C@H](O)[C@@H]1O
## Result 4.77

## Task Give the reported value of phenotypic distance for this record: Cc1[nH]nc(C(F)(F)F)c1Cc1sc2c(c1C(=O)N1C[C@](C)(O)CO1)c(=O)n(C)c(=O)n2C(C)C
## Result 1.36

## Task Give the reported value of phenotypic distance for this record: C[C@@H](Oc1cc(-c2cnn(C3CCNCC3)c2)cnc1N)c1c(Cl)ccc(F)c1Cl
## Result 3.13

## Task Give the reported value of phenotypic distance for this record: CC(C)C[C@@H](C(=O)N[C@H](C(=O)OC1CCCC1)c1ccccc1)[C@H](O)C(=O)NO
## Result 1.86

## Task Give the reported value of phenotypic distance for this record: C=C[C@H]1CN2CC[C@H]1C[C@@H]2[C@@H](O)c1ccnc2ccc(OC)cc12 [Quinidine hydrochloride monohydrate]
## Result 0.676

## Task Give the reported value of phenotypic distance for this record: CC(C)C(=O)OCC(=O)[C@@]12O[C@H](C3CCCCC3)O[C@@H]1C[C@H]1[C@@H]3CCC4=CC(=O)C=C[C@]4(C)[C@H]3[C@@H](O)C[C@@]12C [Ciclesonide]
## Result 2.27

## Task Give the reported value of phenotypic distance for this record: O=C1CC[C@@H](C(=O)N2CSC[C@H]2C(=O)O)N1
## Result 0.594

## Task Give the reported value of phenotypic distance for this record: OC(c1cc(C(F)(F)F)nc2c(C(F)(F)F)cccc12)C1CCCCN1 (centres undefined) [Mefloquine hydrochloride]
## Result 0.65

## Task Give the reported value of phenotypic distance for this record: C[C@]12CC[C@H](O)C[C@H]1CC[C@@H]1[C@@H]2C[C@@H](O)[C@]2(C)[C@@H](C3=CC(=O)OC3)CC[C@]12O
## Result 4.82

## Task Give the reported value of phenotypic distance for this record: Cn1ncnc1[C@H]1c2n[nH]c(=O)c3cc(F)cc(c23)N[C@@H]1c1ccc(F)cc1
## Result 2.79

## Task Give the reported value of phenotypic distance for this record: C[C@H]1Oc2cc(cnc2N)-c2c(nn(C)c2C#N)CN(C)C(=O)c2ccc(F)cc21
## Result 1.4

## Task Give the reported value of phenotypic distance for this record: COC(=O)[C@@H]1[C@H]2C[C@H]3c4[nH]c5ccccc5c4CCN3C[C@@H]2CC[C@@H]1O [Yohimbine hydrochloride]
## Result 0.828

## Task Give the reported value of phenotypic distance for this record: C=CC(=O)Nc1cc(Nc2nccc(-c3cn(C)c4ccccc34)n2)c(OC)cc1N(C)CCN(C)C [Osimertinib mesylate]
## Result 2.48

## Task Give the reported value of phenotypic distance for this record: CCC(C)(C)C(=O)O[C@H]1C[C@@H](C)C=C2C=C[C@H](C)[C@H](CC[C@@H]3C[C@@H](O)CC(=O)O3)[C@H]21
## Result 3.45

## Task Give the reported value of phenotypic distance for this record: COc1cc2c(c(OC)c1OC)-c1ccc(OC)c(=O)cc1[C@@H](NC(C)=O)CC2
## Result 12.5

## Task Give the reported value of phenotypic distance for this record: CCN(CC)Cc1ccc(C(=O)N(CCc2ccccc2OC)[C@@H]2CCNC2)cc1
## Result 5.34

## Task Give the reported value of phenotypic distance for this record: N=C(N)NCc1cccc(I)c1 [Iobenguane sulfate]
## Result 0.734

## Task Give the reported value of phenotypic distance for this record: COc1ccc2[nH]c([S+]([O-])Cc3ncc(C)c(OC)c3C)nc2c1 (centres undefined)
## Result 0.726

## Task Give the reported value of phenotypic distance for this record: COC(=O)Nc1nc2cc(Sc3ccccc3)ccc2[nH]1
## Result 5.86

## Task Give the reported value of phenotypic distance for this record: C[C@@H]1CN([C@H]2CC[C@](C#N)(c3ccc(F)cc3)CC2)CC[C@]1(C(=O)O)c1ccccc1 [Levocabastine hydrochloride]
## Result 0.779

## Task Give the reported value of phenotypic distance for this record: CCOC(=O)OC(C)OC1=C(C(=O)Nc2ccccn2)N(C)S(=O)(=O)c2ccccc21 (centres undefined)
## Result 0.801

## Task Give the reported value of phenotypic distance for this record: CO[C@H]1C(=O)[C@]2(C)[C@@H](OC)C[C@H]3OC[C@@]3(OC(C)=O)[C@H]2[C@H](OC(=O)c2ccccc2)[C@]2(O)C[C@H](OC(=O)[C@H](O)[C@@H](NC(=O)OC(C)(C)C)c3ccccc3)C(C)=C1C2(C)C
## Result 3.99
